experiment: self-splicing fitness, log relative to wild type (ln ratio); higher = more splicing; Tetrahymena group I intron in knt gene, E. coli kanamycin selection, DiMSum; sequences stand for … in CUCUCU…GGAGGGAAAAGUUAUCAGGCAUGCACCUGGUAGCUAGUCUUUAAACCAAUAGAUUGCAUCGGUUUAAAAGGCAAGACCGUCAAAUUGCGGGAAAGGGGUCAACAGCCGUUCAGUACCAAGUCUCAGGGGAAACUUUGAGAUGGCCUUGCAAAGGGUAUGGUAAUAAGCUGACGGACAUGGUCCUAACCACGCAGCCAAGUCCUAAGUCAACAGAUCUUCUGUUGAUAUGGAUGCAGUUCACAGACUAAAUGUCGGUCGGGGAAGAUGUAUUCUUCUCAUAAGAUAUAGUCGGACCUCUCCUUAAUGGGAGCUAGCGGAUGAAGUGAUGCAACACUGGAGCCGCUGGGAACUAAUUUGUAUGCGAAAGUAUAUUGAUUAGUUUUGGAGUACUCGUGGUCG; settings: 30 °C;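 note: selection with 25 µg/mL kanamycin versus none on LB agar overnight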
// map self-splicing fitness (ln) to label using lower bin (below -3), middle bin (-3 to below -2), upper bin (-2 or more)

• CACCAGCAAUAUUACGGCAU = middle bin
• GGGAAGCAAUAUUACGUAUA = middle bin
• UCCCAGCAAUAUUACGAGUG = lower bin
• AGACAGCAAUAUUACGGGCA = upper bin
• ACGAAGCAAUAUUACGUCGG = upper bin
• UGUGAGCAAUAUUACGCCUA = upper bin
• AGCGAGCAAUAUUACGCUGG = lower bin
• GGCGAGCAAUAUUACGAACC = middle bin
• CCUGAGCAAUAUUACGGUUA = middle bin
• CAGGAGCAAUAUUACGUUGG = middle bin
• CCAGAGCAAUAUUACGUUUG = middle bin
• UAUCAGCAAUAUUACGAGUU = middle bin
• AUCGAGCAAUAUUACGUUUA = middle bin
